Target: TSG101 1-145, Q99816
Sequence (Q99816 1-145): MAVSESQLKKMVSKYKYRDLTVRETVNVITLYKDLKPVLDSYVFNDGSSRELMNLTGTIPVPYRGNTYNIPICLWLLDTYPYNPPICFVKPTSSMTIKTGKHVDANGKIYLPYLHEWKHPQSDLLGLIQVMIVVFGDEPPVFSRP

| binder | selected by phage display |
| --- | --- |
| VTLPTAPNMNSEPTLQ [MFSD6, Q6ZSS7] | confidence 3 (active) |
| PTLQPSAPQQARDPFE [DENND1A, Q8TEH3] | confidence 2 (active) |
| TAAIPSAPVLPPPPVH [YLPM1, P49750] | confidence 4 (active) |
| PSAAEHIVSPSAPAGD [TACC2, O95359] | confidence 2 (active) |
| PVVPTAPELQPSTSTD [MDC1, Q14676] | confidence 3 (active) |
| PTAPPLQPHPGLHHQS [CHD7, Q9P2D1] | confidence 4 (active) |
| PSAPLPFVPPPAVPSV [PRRC1, Q96M27] | confidence 4 (active) |
